measurement_description: AUC in plasma of fasted C57BL6 mouse at 2 mg/kg, iv and 10 mg/kg, po by LC-MS-MS analysis
Format: ADME, organism-based
readout_kind: AUC (µM·h)
# value in µM·h; strip the unit string

**Query** What does the record list as AUC for Cc1nnc(-c2ccc(N3CCC(Oc4ccccc4C(F)(F)F)CC3)nn2)s1 ?
**Result** 19
